system: MST1; construct: gene STK4; conditions: concentration: 1 μM,replicates: in singlicate; n = 1;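 also: KINOMEscan kinase panel screen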

smiles_structure	%Inh, %
COc1cc2c(Nc3ccc(NC(=O)c4ccccc4)cc3)ncnc2cc1OCCCN1CCOCC1	16
CCCC(=O)Nc1n[nH]c2ncccc12	0
c1ccc(Oc2ccc(Nc3ccnc4ccc(-c5ccccn5)cc34)cc2)cc1	0
Cc1n[nH]c2cc(Nc3ccnc(Nc4cccc(CN5CCOCC5)c4)n3)ccc12	0
Cc1cccc2c(-c3ccncc3)c(-c3ccc(F)cc3)nn12.Cl	90.4
C[C@@H]1CNc2c(sc3ccc4nc(-c5ccc(O)cc5)ccc4c23)C(=O)N1	0
O=C1NCCc2[nH]c(-c3ccncc3)cc21	3
CS(=O)(=O)c1cccc(CNc2nc(Nc3ccc4c(c3)[C@@H]3C[C@@H]4CNC3=O)ncc2C(F)(F)F)c1	0
CCn1c(-c2nonc2N)nc2cncc(Br)c21	0

* * *

system: CTK; construct: gene MATK; settings: concentration: 1 μM,replicates: in singlicate; n = 1

compound	target_entity	%Inh
O=C(NCC1CC1)c1ccc(-c2cc(C(=O)NC3CC3)ccc2F)cc1	CTK	0%
COc1cccc(OC)c1C(=O)Nc1cccc(-c2nn3ccccc3c2-c2ccnc(Nc3cccc(F)c3)n2)c1	CTK	21%
N#Cc1cccc(C(=O)NC2CCN(c3ccnc(Nc4ccc(F)cc4)n3)C2)c1 (stereo not shown)	CTK	0%
CS(=O)(=O)Nc1ccc(-c2ccnc3[nH]ccc23)cc1	CTK	0%
C[C@@H]1CCN(C(=O)N2CCCC2)C[C@@H]1N(C)c1ncnc2[nH]ccc12	CTK	19%
Cc1n[nH]c2cc(Nc3ccnc(Nc4cccc(CN5CCOCC5)c4)n3)ccc12	CTK	0%
CC(=O)c1c(-c2ccncc2)[nH]c(-c2ccncc2)c1C	CTK	0%
O=C(NOCC1CC1)c1cc(Br)c(F)c(F)c1Nc1ccc(I)cc1Cl	CTK	0%
COc1ccc(Nc2nccc(N3CCC(NC(=O)c4cccc(C#N)c4)C3)n2)cc1 (stereo not shown)	CTK	0%
CSc1nccc(-c2c(-c3ccc(F)cc3)ncn2CCCN2CCOCC2)n1.Cl	CTK	40%
Cn1ccc2ncnc(Oc3ccc(NC(=O)Nc4cc(C(C)(C)C)on4)c(Cl)c3)c21	CTK	48%
Cn1ccc2ncnc(Oc3ccc(NC(=O)Nc4cnn(C(C)(C)C)c4)c(Cl)c3)c21	CTK	20%
COc1cc2nccc(Nc3ccc(Oc4ccccc4)cc3)c2cc1OC.Cl	CTK	0%
CN1CCN(CCNc2nc3cc(Oc4ccc(NC(=O)Nc5cc(C(F)(F)F)ccc5F)cc4)ccc3[nH]2)CC1.Cl.Cl	CTK	0%
OCCn1cc(-c2cnc3nnn(Cc4ccc5ncccc5c4)c3n2)cn1	CTK	0%
Cn1ccc2ncnc(Oc3ccc(NC(=O)Nc4ccnc(C(F)(F)F)c4)c(Cl)c3)c21	CTK	0%
CNC(=O)c1ccccc1Nc1nc(Nc2cccc(CS(C)(=O)=O)c2)ncc1C.O=CO	CTK	38%
CS(=O)c1ccc(-c2coc3ccc(-c4n[nH]c(=O)o4)cc23)cc1 (stereo not shown)	CTK	0%
CCNCC(Cc1ccccc1)NC(=O)c1cc(Br)c(-c2ccnc3[nH]ccc23)s1.Cl.Cl (stereo not shown)	CTK	0%

* * *

%Inh values for the compounds below.
tested on: MERTK; details: concentration: 1 μM,replicates: in singlicate; n = 1

compound	%Inh
O=C(Nc1ccccc1)c1cccc(Oc2ccc3nccn3n2)c1	0%
FC(F)(F)c1cc(Br)cc(Nc2nccc(-c3cnn4ncccc34)n2)c1	14%
CC(=O)Nc1ccc(-c2cc3ncnc(SCC(=O)O)c3s2)cc1	0%
CC(=O)c1c(-c2ccncc2)[nH]c(-c2ccncc2)c1C	0%
Cn1ccc2ncnc(Oc3ccc(NC(=O)Nc4cccc(C(F)(F)F)c4)c(Cl)c3)c21	85%
Cl.Cl.NC[C@H](CC1CCCCC1)NC(=O)c1ccc(-c2ccnc3[nH]ccc23)s1	68%
C[C@@H]1CCN(C(=O)N2CCCC2)C[C@@H]1N(C)c1ncnc2[nH]ccc12	0%
CCCC(=O)Nc1n[nH]c2ncccc12	5%
COc1cc2ncn(-c3cc(OCC4CCCCC4)c(C(N)=O)s3)c2cc1OC	33%
CC(=O)Nc1nc2cnc(Nc3cc(NC(=O)c4cccc(CC(C)(C)C#N)c4)ccc3C)nc2s1	31%
OCCn1cc(-c2cnc3nnn(Cc4ccc5ncccc5c4)c3n2)cn1	0%
CNC(=O)c1ccccc1Nc1nc(Nc2cccc(CS(C)(=O)=O)c2)ncc1C.O=CO	100%
NC(=O)Nc1sc(-c2ccc(F)cc2)cc1C(N)=O	10%
Cc1ccc(CC(=O)N2CCc3cc(-c4cn(C)c5ncnc(N)c45)ccc32)cc1	27%
O=C(Nc1ccc(Oc2ccc3nc(NC(=O)C4CC4)cn3n2)c(F)c1)c1cccn(-c2ccccc2)c1=O	96%
COc1cccc(C2=C(Nc3cccc(Cl)c3)C(=O)NC2=O)c1	0%
C[C@@H](Oc1cc(-n2cnc3cc(-c4ccncc4)ccc32)sc1C(N)=O)c1ccccc1Cl	86%
COc1ccc(Nc2nccc(N3CCC(NC(=O)c4cccc(C#N)c4)C3)n2)cc1 (centres unmarked)	24%
COc1cc2nccc(Nc3ccc(Oc4ccccc4)cc3)c2cc1OC.Cl	12%
Cn1cc(-c2cccc3c(N)c(C(N)=O)nnc23)cn1	0%
